Biological target: sGC α1/β1 heterodimer (Homo sapiens, UniProt Q02108+Q02153)
Construct: expressed in transfected cells; host or cells: CHO-K1 (clone #7, CHO-K1/sGC)
Sequence (Q02108 whole entry): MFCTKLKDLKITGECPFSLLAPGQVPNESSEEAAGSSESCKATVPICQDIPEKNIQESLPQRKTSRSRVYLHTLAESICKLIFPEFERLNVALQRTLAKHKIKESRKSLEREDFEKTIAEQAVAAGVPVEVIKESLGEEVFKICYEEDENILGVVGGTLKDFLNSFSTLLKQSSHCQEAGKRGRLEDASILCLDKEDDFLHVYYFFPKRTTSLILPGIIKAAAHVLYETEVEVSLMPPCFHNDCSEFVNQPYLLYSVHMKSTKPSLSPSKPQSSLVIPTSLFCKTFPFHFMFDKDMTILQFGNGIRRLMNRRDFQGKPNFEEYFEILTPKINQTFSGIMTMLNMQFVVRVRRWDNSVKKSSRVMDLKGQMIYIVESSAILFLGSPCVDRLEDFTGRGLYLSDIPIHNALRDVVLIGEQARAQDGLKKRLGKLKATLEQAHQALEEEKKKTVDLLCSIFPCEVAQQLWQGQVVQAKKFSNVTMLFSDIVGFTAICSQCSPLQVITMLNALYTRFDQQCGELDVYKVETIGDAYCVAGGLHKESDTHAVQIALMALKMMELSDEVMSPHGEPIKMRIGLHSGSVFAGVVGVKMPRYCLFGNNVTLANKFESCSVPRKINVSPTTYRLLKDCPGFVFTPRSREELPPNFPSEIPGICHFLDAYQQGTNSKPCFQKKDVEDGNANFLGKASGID
Sequence (Q02153 whole entry): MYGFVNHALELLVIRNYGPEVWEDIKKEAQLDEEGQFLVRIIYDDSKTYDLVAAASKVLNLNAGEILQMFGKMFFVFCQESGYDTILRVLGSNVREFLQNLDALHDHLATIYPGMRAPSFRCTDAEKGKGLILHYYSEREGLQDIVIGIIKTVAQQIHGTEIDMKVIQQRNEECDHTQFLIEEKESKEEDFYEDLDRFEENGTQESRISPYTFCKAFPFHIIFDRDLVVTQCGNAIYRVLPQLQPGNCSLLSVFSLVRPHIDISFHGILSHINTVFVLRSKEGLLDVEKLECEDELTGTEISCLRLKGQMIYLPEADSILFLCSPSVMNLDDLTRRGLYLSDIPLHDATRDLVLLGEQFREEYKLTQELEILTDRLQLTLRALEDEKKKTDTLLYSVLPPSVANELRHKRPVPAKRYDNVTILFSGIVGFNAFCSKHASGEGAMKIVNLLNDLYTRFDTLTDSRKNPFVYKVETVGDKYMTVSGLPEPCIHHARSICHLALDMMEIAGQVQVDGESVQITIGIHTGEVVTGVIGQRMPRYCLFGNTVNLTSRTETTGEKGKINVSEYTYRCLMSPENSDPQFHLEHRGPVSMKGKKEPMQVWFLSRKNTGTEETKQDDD
Assay: Cell-based sGC functional assay (CASA assay): cGMP generation in CHO-K1/sGC cells, HTRF detection
Settings: CHO-K1, percent activation relative to standard Compound A in CHO-K1/sGC cells; read-out: % Act.

COMPOUND: CC1(c2cccc(F)c2)C(=O)Nc2nc(-c3cn4ccnc4c(CCC(F)(F)C(F)(F)F)n3)nc(N)c21 (stereo not shown) [Example 231A]
READOUT UNIT: %
Emax: 156
//
COMPOUND: CC(C)Cc1nc(-c2nc(N)c3c(n2)NC(=O)C3(C)c2ccc(C(F)(F)F)cc2)cn2ccnc12 (stereo not shown) [Example 128B]
READOUT UNIT: %
Emax: 108
//
COMPOUND: CC1(C)C(=O)Nc2nc(-c3cn4ccnc4c(Cc4cccc(C#N)c4)n3)nc(N)c21
READOUT UNIT: %
Emax: 114
//
COMPOUND: CC1(c2ccc(F)cc2)C(=O)Nc2nc(-c3cn4ccnc4c(C4CC4)n3)nc(N)c21 (stereo not shown) [Example 28A]
READOUT UNIT: %
Emax: 82
//
COMPOUND: Nc1nc(-c2cn3ccnc3c(CCCC(F)(F)F)n2)nc2c1C(c1ccc(Cl)cn1)(C1CC1)C(=O)N2 (stereo not shown) [Example 218B]
READOUT UNIT: %
Emax: 126
//
COMPOUND: CCC1(c2ccc(Cl)cc2)C(=O)Nc2nc(-c3cn4ccnc4c(CCC(F)(F)C(F)(F)F)n3)nc(N)c21 (stereo not shown) [Example 247B]
READOUT UNIT: %
Emax: 117
//
COMPOUND: CC(C)(C)CCc1nc(-c2nc(N)c3c(n2)NC(=O)C3(C)c2ccc(Cl)cc2)cn2ccnc12 (stereo not shown) [Example 120A]
READOUT UNIT: %
Emax: 112

###

# key: entry, value: pEC50
Biological target: sGC α1/β1 heterodimer (Homo sapiens, UniProt Q02108+Q02153)
Experiment: Cell-based sGC functional assay (CASA assay): cGMP generation in CHO-K1/sGC cells, HTRF detection
Conditions: inflection point (IP) of cGMP generation in CHO-K1/sGC cells, 4P fit; activity expressed as percentage of Compound A
pEC50: −log10 of the molar value.
REPORTED METRIC: pEC50

COMPOUND: CC1(c2ccc(F)cn2)C(=O)Nc2nc(-c3cn4c(Br)cnc4c(CCC(F)(F)C(F)(F)F)n3)nc(N)c21 (stereo not shown) [Example 262B]
TARGET OF ASSAY: sGC α1/β1 heterodimer (Homo sapiens, UniProt Q02108+Q02153)
REPORTED METRIC: pEC50
RESULT: 6.63
//
COMPOUND: CCC(CC)Cc1nc(-c2nc(N)c3c(n2)NC(=O)C3(C)c2ccc(F)cc2)cn2ccnc12 (stereo not shown) [Example 13A]
TARGET OF ASSAY: sGC α1/β1 heterodimer (Homo sapiens, UniProt Q02108+Q02153)
REPORTED METRIC: pEC50
RESULT: 7.38
//
COMPOUND: Nc1nc(-c2cn3ccnc3c(CCC(F)(F)F)n2)nc2c1C(c1ccc(Cl)cc1F)(C1CC1)C(=O)N2 (stereo not shown) [Example 338A]
TARGET OF ASSAY: sGC α1/β1 heterodimer (Homo sapiens, UniProt Q02108+Q02153)
REPORTED METRIC: pEC50
RESULT: 6.75
//
COMPOUND: CC1(c2ccc(Cl)cc2)C(=O)Nc2nc(-c3cn4ccnc4cn3)nc(NCCC(F)(F)C(F)(F)F)c21 (stereo not shown) [Example 286A]
TARGET OF ASSAY: sGC α1/β1 heterodimer (Homo sapiens, UniProt Q02108+Q02153)
REPORTED METRIC: pEC50
RESULT: 6.91
//
COMPOUND: Nc1nc(-c2cn3ccnc3c(Cc3ccccc3)n2)nc2c1C(C(=O)NC1CC1)(C1CC1)C(=O)N2 (single isomer, unassigned) [Example 40A]
TARGET OF ASSAY: sGC α1/β1 heterodimer (Homo sapiens, UniProt Q02108+Q02153)
REPORTED METRIC: pEC50
RESULT: 7.28
//
COMPOUND: CC1(c2ccc(F)cc2)C(=O)Nc2nc(-c3cn4ccnc4c(CCc4ccccc4F)n3)nc(N)c21 (stereo not shown) [Example 3A]
TARGET OF ASSAY: sGC α1/β1 heterodimer (Homo sapiens, UniProt Q02108+Q02153)
REPORTED METRIC: pEC50
RESULT: 7.72
//
COMPOUND: CC1(c2ccc(Cl)cc2F)C(=O)Nc2nc(-c3cn4ccnc4c(CCC(F)(F)F)n3)nc(N)c21 (stereo not shown) [Example 179A]
TARGET OF ASSAY: sGC α1/β1 heterodimer (Homo sapiens, UniProt Q02108+Q02153)
REPORTED METRIC: pEC50
RESULT: 7.35

###

Target: sGC α1/β1 heterodimer (Homo sapiens, UniProt Q02108+Q02153)
Construct: expressed in transfected cells; host or cells: CHO-K1 (clone #7, CHO-K1/sGC)
Assay: Cell-based sGC functional assay (CASA assay): cGMP generation in CHO-K1/sGC cells, HTRF detection
Details: CHO-K1, percent activation relative to standard Compound A in CHO-K1/sGC cells; read-out: % Act.

MOLECULE: Nc1nc(-c2cn3cc(C(F)(F)F)nc3c(Cc3ccc(F)cc3)n2)nc2c1C(C(=O)NC1CC1)(C1CC1)C(=O)N2 (stereo not shown) [Example 50B]
Emax [%]: 86
--
MOLECULE: CCCc1nc(-c2nc(N)c3c(n2)NC(=O)C3(c2ccc(Cl)c(F)c2)C2CC2)cn2ccnc12 (stereo not shown) [Example 327A]
Emax [%]: 112
--
MOLECULE: CC1(c2ccc(Cl)cc2)C(=O)Nc2nc(-c3cn4ccnc4c(CCCC(F)(F)F)n3)nc(N)c21 (stereo not shown) [Example 206A]
Emax [%]: 116
--
MOLECULE: CC1(c2ccc(F)cc2)C(=O)Nc2nc(-c3cn4ccnc4c(Cc4ccc(F)c(F)c4)n3)nc(N)c21 (stereo not shown) [Example 96A]
Emax [%]: 106
--
MOLECULE: CNc1nc(-c2cn3ccnc3c(CCC(F)(F)C(F)(F)F)n2)nc2c1C(C)(c1ccc(F)cc1)C(=O)N2 (stereo not shown) [Example 307A]
Emax [%]: 93
--
MOLECULE: CC1(c2ccc(C3CC3)nc2)C(=O)Nc2nc(-c3cn4ccnc4c(CCC(F)(F)C(F)(F)F)n3)nc(N)c21 (stereo not shown) [Example 240B]
Emax [%]: 105
--
MOLECULE: COc1ccc(C2(C3CC3)C(=O)Nc3nc(-c4cn5ccnc5c(CCC(F)(F)C(F)(F)F)n4)nc(N)c32)nc1 (single isomer, unassigned) [Example 337A]
Emax [%]: 189

###

Target: sGC α1/β1 heterodimer (Homo sapiens, UniProt Q02108+Q02153)
Assay: Cell-based sGC functional assay (CASA assay): cGMP generation in CHO-K1/sGC cells, HTRF detection
Conditions: inflection point (IP) of cGMP generation in CHO-K1/sGC cells, 4P fit; activity expressed as percentage of Compound A
REPORTED METRIC: EC50 (nM)

MOLECULE: CC1(C(=O)NC2CC2)C(=O)Nc2nc(-c3cn4ccnc4c(CCC(F)(F)C(F)(F)F)n3)nc(N)c21 (centres unmarked) [Example 60A]
TARGET OF ASSAY: sGC α1/β1 heterodimer (Homo sapiens, UniProt Q02108+Q02153)
RESULT: 88

MOLECULE: CC1(c2ccc(Br)cc2)C(=O)Nc2nc(-c3cn4ccnc4c(CCC(F)(F)F)n3)nc(N)c21 (centres unmarked) [Example 181A]
TARGET OF ASSAY: sGC α1/β1 heterodimer (Homo sapiens, UniProt Q02108+Q02153)
RESULT: 56

MOLECULE: Nc1nc(-c2cn3ccnc3c(CCCC(F)(F)F)n2)nc2c1C(c1ccc(F)cn1)(C1CC1)C(=O)N2 (centres unmarked) [Example 217A]
TARGET OF ASSAY: sGC α1/β1 heterodimer (Homo sapiens, UniProt Q02108+Q02153)
RESULT: 288

MOLECULE: Nc1nc(-c2cn3ccnc3c(CCC(F)(F)C(F)(F)F)n2)nc2c1C(c1ncc(Cl)cn1)(C1CC1)C(=O)N2 (centres unmarked) [Example 349A]
TARGET OF ASSAY: sGC α1/β1 heterodimer (Homo sapiens, UniProt Q02108+Q02153)
RESULT: 213

MOLECULE: CC1(c2ccc(C(F)(F)F)cn2)C(=O)Nc2nc(-c3cn4ccnc4c(CC4CCC4)n3)nc(N)c21 (centres unmarked) [Example 119B]
TARGET OF ASSAY: sGC α1/β1 heterodimer (Homo sapiens, UniProt Q02108+Q02153)
RESULT: 161

MOLECULE: CC1(c2ccc(OC(F)(F)F)cc2)C(=O)Nc2nc(-c3cn4ccnc4cn3)nc(N)c21 (centres unmarked) [Example 145A]
TARGET OF ASSAY: sGC α1/β1 heterodimer (Homo sapiens, UniProt Q02108+Q02153)
RESULT: 385

MOLECULE: Nc1nc(-c2cn3ccnc3c(CCCC(F)(F)F)n2)nc2c1C(c1ccc(C(F)F)cn1)(C1CC1)C(=O)N2 (single isomer, unassigned) [Example 378B]
TARGET OF ASSAY: sGC α1/β1 heterodimer (Homo sapiens, UniProt Q02108+Q02153)
RESULT: 373

MOLECULE: Nc1nc(-c2cn3ccnc3c(CCC(F)(F)F)n2)nc2c1C(c1ccc(Cl)c(F)c1)(C1CC1)C(=O)N2 (centres unmarked) [Example 190A]
TARGET OF ASSAY: sGC α1/β1 heterodimer (Homo sapiens, UniProt Q02108+Q02153)
RESULT: 114

MOLECULE: Nc1nc(-c2cn3ccnc3c(CCC(F)(F)F)n2)nc2c1C(c1ccc(Cl)cc1)(C1CC1)C(=O)N2 (centres unmarked) [Example 198B]
TARGET OF ASSAY: sGC α1/β1 heterodimer (Homo sapiens, UniProt Q02108+Q02153)
RESULT: 492

MOLECULE: Nc1nc(-c2cn3ccnc3c(Cc3ccc(F)cc3)n2)nc2c1C(c1ccc(Cl)cn1)(C1CC1)C(=O)N2 (single isomer, unassigned) [Example 108A]
TARGET OF ASSAY: sGC α1/β1 heterodimer (Homo sapiens, UniProt Q02108+Q02153)
RESULT: 12

MOLECULE: Nc1nc(-c2cn3cc(C(F)(F)F)nc3c(Cc3ccccc3)n2)nc2c1C(C(=O)NC1CC1)(C1CC1)C(=O)N2 (centres unmarked) [Example 51A]
TARGET OF ASSAY: sGC α1/β1 heterodimer (Homo sapiens, UniProt Q02108+Q02153)
RESULT: 890

MOLECULE: CCC1(C2CC2)C(=O)Nc2nc(-c3cn4ccnc4c(Cc4ccccc4)n3)nc(N)c21 (single isomer, unassigned) [Example 77B]
TARGET OF ASSAY: sGC α1/β1 heterodimer (Homo sapiens, UniProt Q02108+Q02153)
RESULT: 30

MOLECULE: Nc1nc(-c2cn3ccnc3c(CCCC(F)(F)F)n2)nc2c1C(c1cncc(F)c1)(C1CC1)C(=O)N2 (centres unmarked) [Example 356B]
TARGET OF ASSAY: sGC α1/β1 heterodimer (Homo sapiens, UniProt Q02108+Q02153)
RESULT: 487

MOLECULE: CCCCc1nc(-c2nc(N)c3c(n2)NC(=O)C3(c2ccc(Cl)c(F)c2)C2CC2)cn2ccnc12 (centres unmarked) [Example 329A]
TARGET OF ASSAY: sGC α1/β1 heterodimer (Homo sapiens, UniProt Q02108+Q02153)
RESULT: 16
